# testSystem: hERG channel (Homo sapiens)
# Sequence (Q12809 whole entry): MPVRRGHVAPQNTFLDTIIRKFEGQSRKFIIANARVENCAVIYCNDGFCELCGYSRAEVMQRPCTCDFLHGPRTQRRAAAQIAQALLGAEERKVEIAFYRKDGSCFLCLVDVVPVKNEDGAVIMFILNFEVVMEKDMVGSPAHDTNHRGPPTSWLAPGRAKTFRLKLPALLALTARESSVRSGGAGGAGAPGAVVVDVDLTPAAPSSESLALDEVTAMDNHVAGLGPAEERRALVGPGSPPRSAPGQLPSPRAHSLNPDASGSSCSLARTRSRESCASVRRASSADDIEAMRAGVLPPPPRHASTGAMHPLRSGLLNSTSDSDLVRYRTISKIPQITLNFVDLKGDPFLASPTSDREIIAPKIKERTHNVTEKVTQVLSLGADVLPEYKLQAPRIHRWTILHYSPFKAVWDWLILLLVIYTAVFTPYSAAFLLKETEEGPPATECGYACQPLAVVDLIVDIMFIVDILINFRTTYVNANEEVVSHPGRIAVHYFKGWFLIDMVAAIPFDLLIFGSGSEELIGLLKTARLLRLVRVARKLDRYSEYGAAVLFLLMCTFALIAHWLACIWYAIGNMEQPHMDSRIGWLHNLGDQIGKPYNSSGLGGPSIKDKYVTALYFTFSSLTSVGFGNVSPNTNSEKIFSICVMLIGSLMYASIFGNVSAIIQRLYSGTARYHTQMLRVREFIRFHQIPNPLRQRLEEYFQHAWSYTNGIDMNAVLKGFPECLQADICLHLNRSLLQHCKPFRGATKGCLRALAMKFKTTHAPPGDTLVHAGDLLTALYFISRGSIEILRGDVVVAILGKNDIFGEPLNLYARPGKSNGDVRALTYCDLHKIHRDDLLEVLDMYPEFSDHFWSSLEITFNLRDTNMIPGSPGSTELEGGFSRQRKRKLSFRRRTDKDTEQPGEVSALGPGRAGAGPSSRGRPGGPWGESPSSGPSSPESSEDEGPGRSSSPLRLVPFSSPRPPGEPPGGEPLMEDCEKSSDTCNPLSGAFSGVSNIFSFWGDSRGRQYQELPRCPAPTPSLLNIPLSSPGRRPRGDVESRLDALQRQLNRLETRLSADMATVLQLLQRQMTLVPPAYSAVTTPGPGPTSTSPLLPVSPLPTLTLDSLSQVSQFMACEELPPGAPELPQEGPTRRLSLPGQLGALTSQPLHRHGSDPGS
# assayComment: Early toxicity: hERG inhibition
# conditionInfo: human
Could you label it t if measured inhibition at 10 µM is 20% or higher, and f otherwise?

Has C[N+](C)(C)CCOP(=O)([O-])OCCC1CCCCCCCCCCCCCC1 a recorded inhibition at 10 µM greater than or equal to 20%? t

# check: inhibition at 10 µM of C[N+](C)(C)CCOP(=O)([O-])OCCCCC=C1CCCCCCCCCCC1 is greater than or equal to 20% f

Is inhibition at 10 µM for C[N+](C)(C)CCOP(=O)([O-])OCCC1CCCCCCCCCCC1 at or above 20%? f

Check if inhibition at 10 µM >= 20% (inclusive). Item: C[N+](C)(C)CCCOP(=O)([O-])OCCCCC=C1CCCCCCCCCCCCCC1 f

Given the entry C[N+](C)(C)CCOP(=O)([O-])OCCCCCC1CCCCCCCCCCCCCC1 , answer whether its inhibition at 10 µM meets or surpasses 20%. f

Hello, I need to know if C[N+](C)(C)CCOP(=O)([O-])OCCCCC1CCCCCCCCCCCCCC1 has measured inhibition at 10 µM not below 20%. Thanks! t

Say whether C[N+](C)(C)CCOP(=O)([O-])OCCCCCC1CCCCCCCCCCC1 shows inhibition at 10 µM of 20% or more. t
